# assay explanation: Plasma concentration in C57BL/6J mouse at 30 mg/kg, po after 8 hrs
# Type: ADME, organism-based
# Parameters: dose 30 mg/kg, route oral
measurement kind: concentration at 8 h (nM)
One number for each entry, in nM.

What value of concentration at 8 h has been reported for the following compound? O=C(Nc1ccc(C(F)(F)F)cc1)N1[C@@H]2CC[C@H]1C[C@@H](S(=O)(=O)c1ccccn1)C2
520

###

# assay explanation: Plasma concentration in C57BL/6J mouse at 10 mg/kg, po after 2 hrs
# Type: ADME, organism-based
# Set-up: dose 10 mg/kg, route oral
measurement kind: concentration at 2 h
I'd appreciate it if you included the unit after the number.

For the compound shown here, O=C(Nc1ccc(C(F)(F)F)cc1)N1[C@@H]2CC[C@H]1C[C@@H](S(=O)(=O)c1ccccn1)C2 , give the reported concentration at 2 h.
460 nM

Each recorded value in this set is attributed to ChEMBL document CHEMBL1158455.
